- tested-on: Human TRPV3 (Homo sapiens, UniProt Q8NET8)
- Construct: expressed in transfected cells; host or cells: CHO cells (G-418 selected)
- assay-notes: 45Calcium uptake assay: inhibition of 2-APB induced cellular uptake of radioactive calcium
- Assay type: cell-based
- cond: 1.0 μM compound; human TRPV3 expressing CHO cells; 2-APB 500 μM; read-out: Percentage inhibition at 1.0 μM
quantity-measured: inhibition at 1 µM (%)

COc1ccc2ccccc2c1CCC(=O)NC1CCSc2ccc(Cl)cc21 (stereo not shown); 49.2
COc1cc(CCC(=O)N[C@@H]2CC3(CCC3)Oc3ccc(Cl)cc32)cc2cc(C)oc12; 51.5
O=C(CCCc1ccccc1OC1CCCC1)NC1CC2(CCC2)Oc2ccc(Cl)cc21 (stereo not shown); 51
CCOc1cccc(CCC(=O)NC2CC3(CCC3)Oc3ccc(Cl)cc32)c1OC1CCCC1 (stereo not shown); 50.8

----------
- tested-on: Human TRPV3 (Homo sapiens, UniProt Q8NET8)
- Construct: expressed in transfected cells; host or cells: CHO cells (G-418 selected)
- Sequence (Q8NET8 1-790): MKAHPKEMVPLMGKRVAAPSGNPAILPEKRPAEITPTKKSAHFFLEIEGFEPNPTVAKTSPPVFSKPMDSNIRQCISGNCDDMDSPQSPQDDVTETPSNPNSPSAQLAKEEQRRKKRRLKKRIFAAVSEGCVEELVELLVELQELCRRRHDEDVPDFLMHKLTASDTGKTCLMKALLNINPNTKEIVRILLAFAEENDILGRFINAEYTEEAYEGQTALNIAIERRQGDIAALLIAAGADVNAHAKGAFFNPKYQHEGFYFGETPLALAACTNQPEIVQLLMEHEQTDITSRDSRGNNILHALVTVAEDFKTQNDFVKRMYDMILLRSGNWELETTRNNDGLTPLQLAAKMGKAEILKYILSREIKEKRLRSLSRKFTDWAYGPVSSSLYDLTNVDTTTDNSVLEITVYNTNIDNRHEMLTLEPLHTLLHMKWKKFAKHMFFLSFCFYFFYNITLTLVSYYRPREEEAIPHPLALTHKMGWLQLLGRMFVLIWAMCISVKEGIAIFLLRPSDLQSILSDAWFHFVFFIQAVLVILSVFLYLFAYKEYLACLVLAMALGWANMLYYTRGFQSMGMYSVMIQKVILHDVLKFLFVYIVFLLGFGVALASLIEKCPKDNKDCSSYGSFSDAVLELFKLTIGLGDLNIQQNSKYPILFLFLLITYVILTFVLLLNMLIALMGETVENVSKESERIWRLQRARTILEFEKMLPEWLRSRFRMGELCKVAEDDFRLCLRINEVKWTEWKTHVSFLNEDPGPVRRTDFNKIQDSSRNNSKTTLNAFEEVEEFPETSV
- assay-notes: 45Calcium uptake assay: inhibition of 2-APB induced cellular uptake of radioactive calcium
- Assay type: cell-based
- cond: 10.0 μM compound; human TRPV3 expressing CHO cells; 2-APB 500 μM; read-out: Percentage inhibition at 10.0 μM
quantity-measured: inhibition at 10 µM (%)

COc1ccc(C(=O)CCC(=O)NC2CC3(CCC3)Oc3ccc(Cl)cc32)c2ccccc12 (centres unmarked) [Example 101]; 63.2
COc1ccc2cc(CCC(=O)N[C@@H]3CC4(CCC4)Oc4ccc(Cl)cc43)ccc2c1 [Example 74]; 90.4
COc1ccccc1CC(=O)NC1CC2(CCC2)Oc2ccc(Cl)cc21 (centres unmarked) [Example 2]; 79
COc1cc(CCC(=O)N[C@H]2CC3(CCC3)Oc3ccc(Cl)cc32)cc2cc(C)oc12 [Example 80]; 98.6
COc1cccc(CCC(=O)NC2CC3(CCC3)Oc3ccc(Cl)cc32)c1OCc1ccccc1 (centres unmarked) [Example 56]; 87.5

Data provenance is patent US8487121B2.
